System: human NOD2 signaling
Test: Inhibition of human NOD2 signaling in HEK-Blue-hNOD2 cells (L18-MDP stimulated, SEAP reporter)
Assay type: cell-based
Details: Homo sapiens, HEK-Blue hNOD2, HEK-Blue-hNOD2 cells, NOD2 ligand stimulation, SEAP reporter; read-out: hNOD2 IC50
Method: Materials: Human NOD32-expressing 1TEK293 cells, HEK-Blue™-hNOD2 cells, were developed by Invivogen (catalogue number: hkb-hnod2) using co-transfection of the human NOD2 gene and an optimized secreted embryonic alkaline phosphatase (SEAP) reporter gene into HTEK293 cells. […] Levels of SEAP were determined with HEK-Blue™ Detection (referred to as QUANTI-Blue solution), a cell culture medium that allows for real-time detection of SEAP. […]
pIC50: −log10 of the molar value.
value_type: pIC50

The cases that follow already have their pIC50 on record.
molecule	value_type	readout_value
Cc1cc(CC(=O)Nc2cnn(C(C)(C)C)c2)cc(Cl)c1Oc1ccnc2cc(F)c(C(N)=O)cc12	pIC50	8.89
[2H]C([2H])([2H])NC(=O)c1ccc2nccc(Oc3cc(F)c(CC(=O)Nc4cnn(C56CC(C5)C6)c4)c(F)c3C)c2c1	pIC50	9.15
CC(C)(C)n1cc(NC(=O)Cc2cc(Cl)c(Oc3ccnc4ccc(CS(C)(=O)=O)cc34)cc2F)cn1	pIC50	7.81

1. Cc1cc(CC(=O)Nc2cnn(C34CC(C3)C4)c2)c(F)cc1Oc1ccnc2ccc(C(N)=O)cc12
2. [2H]C([2H])([2H])NC(=O)c1ccc2nccc(Oc3c(C)cc(CC(=O)Nc4cnn(C56CC(C5)C6)c4)cc3C)c2c1
Kindly identify the item with the lower pIC50 figure among these two: 1 and 2 Record your answer as the label of the chosen record.
2
(2: 7.31, 1: 8.66)

P. Cc1c(Oc2ccnc3ccc(CS(C)(=O)=O)cc23)cc(F)c(CC(=O)Nc2cnn(C(C)(C)C)c2)c1F
Q. Cc1c(Oc2ccnc3ccc(S(=N)(=O)C4CC4)cc23)ccc(CC(=O)Nc2cnn(C(C)(C)C)c2)c1F (single isomer, unassigned)
Kindly identify the item with the lower pIC50 figure among these two: P and Q Record your answer as the label of the chosen record.
P
